# Assay comment: Antioxidant activity assessed as superoxide radical scavenging activity after 20 mins by spectrophotometric analysis
# Assay type: functional
Quantity measured: EC50 (µM)

- COc1cc(C[C@@H]2CO[C@@H](c3cc(OC)c(O)c(OC)c3)[C@@H]2CO)ccc1O[C@@H]1O[C@H](CO)[C@@H](O)[C@H](O)[C@H]1O [ARMANDISIDE]: 10.6
- COc1cc([C@H]2OC[C@H]3[C@@H]2CO[C@@H]3c2cc(OC)c(O[C@@H]3O[C@H](CO)[C@@H](O)[C@H](O)[C@H]3O)c(OC)c2)cc(OC)c1O[C@H]1O[C@@H](CO)[C@H](O)[C@@H](O)[C@@H]1O [LIRIODENDRTACHIOSIDE]: 16
